What abundance fitness was measured for each of the following?
B1: POU domain, class 3, transcription factor 2, residues 262 to 338; numbered along this chain, P20265 (parent)
chain: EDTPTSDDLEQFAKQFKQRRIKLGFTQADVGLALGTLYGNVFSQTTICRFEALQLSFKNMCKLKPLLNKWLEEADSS

variants of: B1; experiment: abundance fitness (aPCA) (normalised: wild type 0, dead -1); higher = more abundant; growth selection in yeast, the domain comes from the species named; settings: Homo sapiens
Give bare numbers.

Example results:
R20S = -0.694
R19G = -0.308
K17H = -0.343
L34I = -0.132
I21K = -0.112
I47Q = -0.723
S76F = -0.161
C61M = -0.088
T36W = -0.33
T26K = -0.399

Take each entry in turn and give its abundance fitness.
1. R19P
2. L55E
3. R49G
4. L37A
5. T26R
6. Q27R

A.
1. -0.961
2. -0.298
3. -0.242
4. -0.023
5. -0.457
6. -0.201

Take each entry in turn and give its abundance fitness.
1. R19D
2. S77H
3. G24P
4. F57I
5. T36S
6. K62T

A.
1. -0.334
2. -0.011
3. -0.714
4. -0.049
5. 0.042
6. -0.059
